The reported measurements were obtained from ChEMBL document CHEMBL3046382.

test system: Mythimna separata; assay: Stomach toxicity in fourth-instar Mythimna separata (Oriental armyworm) larvae in compound treated corn leaves assessed as mortality at 5 mg/kg measured after 4 days; assay type: functional; settings: 96 h
Entries and their mortality at 5 mg/kg values follow.
MEASUREMENT TYPE: mortality at 5 mg/kg (%)

Cc1cc(C)cc(C(=O)N(NC(=O)c2ccc3c(c2C)CCCO3)C(C)(C)C)c1 [CHROMAFENOZIDE]; 100
Cc1c(C(=O)NN(C(=O)c2cccc(Cl)c2)C(C)(C)C)ccc2c1CC(C)O2 (stereo unspecified); 0
Cc1cc(C)cc(C(=O)N(NC(=O)c2ccc3c(c2C)CC(C)O3)C(C)(C)C)c1 (stereo unspecified); 80
Cc1cccc(C(=O)N(NC(=O)c2ccc3c(c2C)CC(C)O3)C(C)(C)C)c1 (stereo unspecified); 15
Cc1c(C(=O)NN(C(=O)c2cc(Cl)cc(Cl)c2)C(C)(C)C)ccc2c1CC(C)O2 (stereo unspecified); 10
Cc1cc(C)cc(C(=O)N(NC(=O)c2ccc3c(c2C)OC(C)C3)C(C)(C)C)c1 (stereo unspecified) [FUXIAN]; 100

----------
Entries and their mortality at 50 mg/kg values follow.
system: Mythimna separata; experiment: Stomach toxicity in fourth-instar Mythimna separata (Oriental armyworm) larvae in compound treated corn leaves assessed as mortality at 50 mg/kg measured after 4 days; type: functional; settings: 96 h
MEASUREMENT TYPE: mortality at 50 mg/kg (%)

Cc1c(C(=O)NN(C(=O)c2ccccc2Cl)C(C)(C)C)ccc2c1CC(C)O2 (stereo not drawn); 100
Cc1cc(C)cc(C(=O)N(NC(=O)c2ccc3c(c2C)CC(C)(C)O3)C(C)(C)C)c1; 90
Cc1c(C(=O)NN(C(=O)c2ccc(Cl)cc2Cl)C(C)(C)C)ccc2c1CC(C)O2 (stereo not drawn); 100
Cc1c(C(=O)NN(C(=O)c2ccc(Cl)cc2Cl)C(C)(C)C)ccc2c1CC(C)(C)O2; 0
Cc1cc(C)cc(C(=O)N(NC(=O)c2ccc3c(c2C)CCCO3)C(C)(C)C)c1 [CHROMAFENOZIDE]; 100
Cc1cccc(C(=O)N(NC(=O)c2ccc3c(c2C)CC(C)O3)C(C)(C)C)c1 (stereo not drawn); 100
Cc1cccc(C(=O)N(NC(=O)c2ccc3c(c2C)CC(C)(C)O3)C(C)(C)C)c1; 30
Cc1c(C(=O)NN(C(=O)c2ccccc2[N+](=O)[O-])C(C)(C)C)ccc2c1CC(C)O2 (stereo not drawn); 60
COc1cccc(C(=O)N(NC(=O)c2ccc3c(c2C)CC(C)(C)O3)C(C)(C)C)c1; 20
Cc1c(C(=O)NN(C(=O)c2ccccc2)C(C)(C)C)ccc2c1CC(C)O2 (stereo not drawn); 90
Cc1c(C(=O)NN(C(=O)c2cccc(Cl)c2)C(C)(C)C)ccc2c1CC(C)O2 (stereo not drawn); 80
Cc1c(C(=O)NN(C(=O)c2cccc(Cl)c2)C(C)(C)C)ccc2c1CC(C)(C)O2; 0
Cc1c(C(=O)NN(C(=O)c2ccc(Cl)cc2)C(C)(C)C)ccc2c1CC(C)(C)O2; 0
Cc1c(C(=O)NN(C(=O)c2ccc(Cl)cc2)C(C)(C)C)ccc2c1CC(C)O2 (stereo not drawn); 100
Cc1c(C(=O)NN(C(=O)c2cc(Cl)cc(Cl)c2)C(C)(C)C)ccc2c1CC(C)O2 (stereo not drawn); 100
Cc1c(C(=O)NN(C(=O)c2ccccc2)C(C)(C)C)ccc2c1CC(C)(C)O2; 0
Cc1cc(C)cc(C(=O)N(NC(=O)c2ccc3c(c2C)CC(C)O3)C(C)(C)C)c1 (stereo not drawn); 100
Cc1cc(C)cc(C(=O)N(NC(=O)c2ccc3c(c2C)OC(C)C3)C(C)(C)C)c1 (stereo not drawn) [FUXIAN]; 100

----------
tested on: Plutella xylostella; experiment: Contact toxicity in fourth-instar Plutella xylostella (diamondback moth) larva assessed as mortality measured after 72 hr by insect-dip method; format: functional
Entries and their LC50 values follow.
MEASUREMENT TYPE: LC50 (µg/mL)

Cc1cc(C)cc(C(=O)N(NC(=O)c2ccc3c(c2Cl)CCCO3)C(C)(C)C)c1; 70.8
Cc1cc(C)cc(C(=O)N(NC(=O)c2ccc3c(c2C)CC(C)O3)C(C)(C)C)c1 (centres undefined); 81.4
Cc1cc(C)cc(C(=O)N(NC(=O)c2ccc3c(c2C)OC(C)C3)C(C)(C)C)c1 (centres undefined) [FUXIAN]; 304
Cc1cc(C)cc(C(=O)N(NC(=O)c2ccc3c(c2C)CCCO3)C(C)(C)C)c1 [CHROMAFENOZIDE]; 123

----------
Entries and their mortality at 200 mg/kg values follow.
test system: Mythimna separata; experiment: Stomach toxicity in fourth-instar Mythimna separata(Oriental armyworm) larvae in compound treated corn leaves assessed as mortality at 200 mg/kg measured after 4 days; format: functional; conditions: 96 h
MEASUREMENT TYPE: mortality at 200 mg/kg (%)

Cc1c(C(=O)NN(C(=O)c2cc([N+](=O)[O-])cc([N+](=O)[O-])c2)C(C)(C)C)ccc2c1CC(C)O2 (stereo not drawn); 20
Cc1c(C(=O)NN(C(=O)c2cccc(Cl)c2)C(C)(C)C)ccc2c1CC(C)(C)O2; 80
Cc1c(C(=O)NN(C(=O)c2ccc(Cl)cc2Cl)C(C)(C)C)ccc2c1CC(C)(C)O2; 90
COc1ccc(C(=O)N(NC(=O)c2ccc3c(c2C)CC(C)(C)O3)C(C)(C)C)cc1; 60
Cc1c(C(=O)NN(C(=O)c2cccc([N+](=O)[O-])c2)C(C)(C)C)ccc2c1CC(C)O2 (stereo not drawn); 20
Cc1c(C(=O)NN(C(=O)c2ccccc2Cl)C(C)(C)C)ccc2c1CC(C)O2 (stereo not drawn); 100
Cc1c(C(=O)NN(C(=O)c2cc([N+](=O)[O-])cc([N+](=O)[O-])c2)C(C)(C)C)ccc2c1CC(C)(C)O2; 40
Cc1cccc(C(=O)N(NC(=O)c2ccc3c(c2C)CC(C)O3)C(C)(C)C)c1 (stereo not drawn); 100
Cc1cccc(C(=O)N(NC(=O)c2ccc3c(c2C)CC(C)(C)O3)C(C)(C)C)c1; 100
Cc1cc(C)cc(C(=O)N(NC(=O)c2ccc3c(c2C)CC(C)(C)O3)C(C)(C)C)c1; 100
Cc1c(C(=O)NN(C(=O)c2cccc([N+](=O)[O-])c2)C(C)(C)C)ccc2c1CC(C)(C)O2; 10
Cc1c(C(=O)NN(C(=O)c2cc(Cl)cc(Cl)c2)C(C)(C)C)ccc2c1CC(C)(C)O2; 60
COc1cccc(C(=O)N(NC(=O)c2ccc3c(c2C)CC(C)(C)O3)C(C)(C)C)c1; 100
Cc1cc(C)cc(C(=O)N(NC(=O)c2ccc3c(c2C)CCCO3)C(C)(C)C)c1 [CHROMAFENOZIDE]; 100
Cc1cc(C)cc(C(=O)N(NC(=O)c2ccc3c(c2C)CC(C)O3)C(C)(C)C)c1 (stereo not drawn); 100
Cc1c(C(=O)NN(C(=O)c2ccccc2Cl)C(C)(C)C)ccc2c1CC(C)(C)O2; 60
Cc1c(C(=O)NN(C(=O)c2cc(Cl)cc(Cl)c2)C(C)(C)C)ccc2c1CC(C)O2 (stereo not drawn); 100
Cc1c(C(=O)NN(C(=O)c2ccccc2[N+](=O)[O-])C(C)(C)C)ccc2c1CC(C)(C)O2; 50

----------
test system: Mythimna separata; test: Stomach toxicity in fourth-instar Mythimna separata (Oriental armyworm) larvae in compound treated corn leaves assessed as mortality at 100 mg/kg measured after 4 days; format: functional; conditions: 96 h
Entries and their mortality at 100 mg/kg values follow.
MEASUREMENT TYPE: mortality at 100 mg/kg (%)

COc1cccc(C(=O)N(NC(=O)c2ccc3c(c2C)CC(C)(C)O3)C(C)(C)C)c1; 30
Cc1c(C(=O)NN(C(=O)c2ccccc2[N+](=O)[O-])C(C)(C)C)ccc2c1CC(C)O2 (stereo unspecified); 100
COc1ccccc1C(=O)N(NC(=O)c1ccc2c(c1C)CC(C)(C)O2)C(C)(C)C; 0
Cc1c(C(=O)NN(C(=O)c2ccc([N+](=O)[O-])cc2)C(C)(C)C)ccc2c1CC(C)O2 (stereo unspecified); 0
Cc1c(C(=O)NN(C(=O)c2cc([N+](=O)[O-])cc([N+](=O)[O-])c2)C(C)(C)C)ccc2c1CC(C)(C)O2; 0
Cc1cccc(C(=O)N(NC(=O)c2ccc3c(c2C)CC(C)(C)O3)C(C)(C)C)c1; 90

----------
Entries and their mortality at 100 mg/kg values follow.
tested on: Mythimna separata; assay: Stomach toxicity in fourth-instar Mythimna separata (Oriental armyworm) larvae in compound treated corn leaves assessed as mortality at 100 mg/kg measured after 4 days; type: functional; conditions: 96 h
MEASUREMENT TYPE: mortality at 100 mg/kg (%)

Cc1c(C(=O)NN(C(=O)c2cc(Cl)cc(Cl)c2)C(C)(C)C)ccc2c1CC(C)(C)O2; 0
Cc1c(C(=O)NN(C(=O)c2ccc(Cl)cc2)C(C)(C)C)ccc2c1CC(C)O2 (centres undefined); 100
Cc1cc(C)cc(C(=O)N(NC(=O)c2ccc3c(c2C)OC(C)C3)C(C)(C)C)c1 (centres undefined); 100
Cc1cc(C)cc(C(=O)N(NC(=O)c2ccc3c(c2C)CCCO3)C(C)(C)C)c1 [CHROMAFENOZIDE]; 100
Cc1c(C(=O)NN(C(=O)c2ccccc2[N+](=O)[O-])C(C)(C)C)ccc2c1CC(C)(C)O2; 0
Cc1cc(C)cc(C(=O)N(NC(=O)c2ccc3c(c2C)CC(C)(C)O3)C(C)(C)C)c1; 100
Cc1c(C(=O)NN(C(=O)c2cccc(Cl)c2)C(C)(C)C)ccc2c1CC(C)(C)O2; 10
Cc1c(C(=O)NN(C(=O)c2cc(Cl)cc(Cl)c2)C(C)(C)C)ccc2c1CC(C)O2 (centres undefined); 100
Cc1c(C(=O)NN(C(=O)c2ccccc2)C(C)(C)C)ccc2c1CC(C)O2 (centres undefined); 100
